Reference for the values: patent US20260061042A1

Molecular target: E. coli CFT073 full-length donor strand complemented PapG-II, PapGDSF N96S N286S (Escherichia coli, UniProt A0A0H2VAQ6, N116S/N306S)
Construct: mouse IgGK signal peptide, C-terminal 8xHis, ExpiCHO, purified
Sequence (A0A0H2VAQ6 with tags, fused parts or gaps N116S/N306S): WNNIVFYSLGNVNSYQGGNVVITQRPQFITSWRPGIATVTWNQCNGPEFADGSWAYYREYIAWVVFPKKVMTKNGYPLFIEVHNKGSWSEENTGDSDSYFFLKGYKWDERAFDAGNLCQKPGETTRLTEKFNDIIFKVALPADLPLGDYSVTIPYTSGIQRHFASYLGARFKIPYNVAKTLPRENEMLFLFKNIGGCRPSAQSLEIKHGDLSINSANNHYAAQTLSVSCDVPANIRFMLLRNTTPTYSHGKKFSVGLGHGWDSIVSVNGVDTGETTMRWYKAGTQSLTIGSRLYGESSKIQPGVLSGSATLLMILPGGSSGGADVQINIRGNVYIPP
Experiment: PapG Luminex ligand binding at equilibrium
Settings: GbO4 beads, HEPES pH 7.4, 4° C. overnight, read-out: Kd (GbO4)
Procedure: To determine the ability of PapGLD mutants to bind the porcine derived globotetraosyl ceramide ligand GalNAc-Gal-Gal-Glc-ceramide (GbO4), a Luminex ligand binding assay was developed. Surfactant Protein-A (SP-A) was coupled to the surface of MagPlex beads by EDC/NHS, to capture the lipid tail of the globotetraosyl ceramide. […] After 20-24 hours the ligand binding plates were read on a FlexMap 3D plate reader for measurement of well-bead region specific MFI. […]
MEASURED ENDPOINT: Kd (nM)
Reply with just the number (in nM).

Ask: Item GalNAc-Gal-Gal-Glc-ceramide [GbO4] has what recorded Kd?
Result: 8.8

* * *

Molecular target: E. coli CFT073 PapG-II lectin domain PapGLD variant N96S S89T, SEQ ID NO: 15 (Escherichia coli, UniProt A0A0H2VAQ6, N116S/S109T)
Test: PapG Luminex ligand binding at equilibrium
Settings: GbO4 beads, HEPES pH 7.4, 4° C. overnight, read-out: Kd (GbO4)
pKd: −log10 of the molar value.
MEASURED ENDPOINT: pKd

Ask: Bench note: what pKd did GalNAc-Gal-Gal-Glc-ceramide [GbO4] show?
Result: > 7.30

* * *

Target: E. coli CFT073 PapG-II lectin domain PapGLD variant N96S G75A, SEQ ID NO: 19 (Escherichia coli, UniProt A0A0H2VAQ6, G95A/N116S)
Experiment: PapG Luminex ligand binding at equilibrium
Settings: GbO4 beads, HEPES pH 7.4, 4° C. overnight, read-out: Kd (GbO4)
pKd: −log10 of the molar value.
MEASURED ENDPOINT: pKd

Ask: Which pKd is reported for this substance? GalNAc-Gal-Gal-Glc-ceramide [GbO4]
Result: < 8.00

* * *

Target: E. coli CFT073 PapG-II lectin domain PapGLD variant N96S G104A, SEQ ID NO: 16 (Escherichia coli, UniProt A0A0H2VAQ6, G124A/N116S)
Sequence (A0A0H2VAQ6 with tags, fused parts or gaps N116S/G124A): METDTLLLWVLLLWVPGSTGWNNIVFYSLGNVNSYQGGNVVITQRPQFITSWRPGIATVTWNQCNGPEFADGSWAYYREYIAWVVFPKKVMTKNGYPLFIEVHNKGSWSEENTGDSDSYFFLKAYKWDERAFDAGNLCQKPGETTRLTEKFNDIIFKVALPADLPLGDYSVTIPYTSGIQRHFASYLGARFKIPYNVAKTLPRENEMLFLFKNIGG
Assay: PapG Luminex ligand binding at equilibrium
Details: GbO4 beads, HEPES pH 7.4, 4° C. overnight, read-out: Kd (GbO4)
MEASURED ENDPOINT: Kd

Ask: What does the record list as Kd for GalNAc-Gal-Gal-Glc-ceramide [GbO4] ?
Result: > 300 nM
